Data provenance is patent US9193669B2.

target: isomerase (Mus musculus, UniProt Q91ZQ5)
Construct: The recovery of 11-cis-retinal after bleaching can be used to estimate the activity of isomerase in vivo; from tissue; host or cells: eyes of living mice (CD-1; Balb/c also named)
Sequence (Q91ZQ5 whole entry): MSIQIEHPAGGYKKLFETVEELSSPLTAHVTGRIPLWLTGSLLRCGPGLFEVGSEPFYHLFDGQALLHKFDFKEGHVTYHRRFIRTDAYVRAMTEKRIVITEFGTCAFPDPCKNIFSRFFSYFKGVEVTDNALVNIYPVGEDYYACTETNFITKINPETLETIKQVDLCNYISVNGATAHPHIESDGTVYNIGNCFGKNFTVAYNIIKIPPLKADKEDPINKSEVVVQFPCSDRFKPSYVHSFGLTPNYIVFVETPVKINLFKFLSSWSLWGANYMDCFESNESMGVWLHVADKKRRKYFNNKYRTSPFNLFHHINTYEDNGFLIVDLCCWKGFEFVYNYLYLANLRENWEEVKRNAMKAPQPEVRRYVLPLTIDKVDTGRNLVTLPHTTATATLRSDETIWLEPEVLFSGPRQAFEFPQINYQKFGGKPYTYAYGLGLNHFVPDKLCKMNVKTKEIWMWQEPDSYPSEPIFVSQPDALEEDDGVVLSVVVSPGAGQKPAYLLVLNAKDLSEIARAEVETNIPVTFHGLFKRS
assay.overview: In vivo murine isomerase assay
Parameters: species or system mice
experimental.context: mouse, po, 4 h; read-out: % Inibition 1 mg/kg, 4 h
measured.metric: inhibition in vivo at 1 mg/kg (%)
One number for each entry, in %.

[2H]C([2H])(CN)C(O)c1cccc(NC(=O)C2CCCCC2)c1 (centres unmarked)	2.01
CCCCCNc1cccc(C(=O)CCN)c1	8.12
CCC(CC)CNc1cccc(C(O)CCN)c1 (centres unmarked)	95.2

Look up inhibition in vivo at 1 mg/kg for the entries below, preserving their order.
1. CCCC(CCC)C(=O)Nc1cccc(C(O)CCN)c1 (centres unmarked)
2. NCCCc1cccc(NS(=O)(=O)C2CCCCC2)c1
3. [2H]C([2H])(CN)C(O)c1cccc(NCC2CCCCC2)c1 (centres unmarked)
4. [2H]C([2H])(CN)C(O)c1cccc(C#CC2CCCCC2)c1 (centres unmarked)
5. [2H]C([2H])(N)CC(O)c1cccc(C#CC2(O)CCCCC2)c1 (centres unmarked)
6. NCCC(O)c1cccc(NS(=O)(=O)C2CCCCC2)c1 (centres unmarked)
7. NCCC(O)c1cccc(NCCCc2ccccc2)c1 (centres unmarked)

Given back:
1. -1.24
2. -11.9
3. 75.1
4. 84.9
5. 27.5
6. -11.7
7. 4.24

Asked: Any idea what inhibition in vivo at 1 mg/kg was measured for COc1ccccc1CNc1cccc(C(O)CCN)c1 (centres unmarked) ?
Given back: 4.08
